viability, T/C: recorded values
# Test system: ASPS-1 complex tumor spheroids, viability
# METHOD_DESCRIPTION: Anticancer human tumor ASPS-1 cell line growth inhibition;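 also: spheroids exposed to agents for 7 days after 3 days of growth; 100% = DMSO vehicle treated spheroids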
# MEASUREMENT_SETUP: second compound 30 pM; first compound 1 µM; hits give low values
MEASURED_QUANTITY: viability, T/C (%)

- [2H]c1nc(C)nc([2H])c1-c1cc(NC[C@@H](C)c2cccc3c(C(=O)NC)ccnc23)ncn1 + COc1cc2c(cc1O)CCNC21CSC2c3c(OC(C)=O)c(C)c4c(c3C(COC1=O)N1C(O)C3Cc5cc(C)c(OC)c(O)c5C(C21)N3C)OCO4: 107
- COc1ccc([C@@H](O)c2cc(-c3ncnc4cc(N5CCOCC5)ccc34)c(F)cc2Cl)nn1 + COc1cc2c(cc1O)CCNC21CSC2c3c(OC(C)=O)c(C)c4c(c3C(COC1=O)N1C(O)C3Cc5cc(C)c(OC)c(O)c5C(C21)N3C)OCO4: 93.2
- Cc1cc(C)c(CNC(=O)c2cc(-c3ccc(CN4CCOCC4)cc3)cc3c2cnn3C2CCCC2)c(=O)[nH]1 + COc1cc2c(cc1O)CCNC21CSC2c3c(OC(C)=O)c(C)c4c(c3C(COC1=O)N1C(O)C3Cc5cc(C)c(OC)c(O)c5C(C21)N3C)OCO4: 104
- CC(C)n1c(=O)n(C)c2cnc3cc(F)c(-c4ccc(OCCCN5CCCCC5)nc4)cc3c21 + COc1cc2c(cc1O)CCNC21CSC2c3c(OC(C)=O)c(C)c4c(c3C(COC1=O)N1C(O)C3Cc5cc(C)c(OC)c(O)c5C(C21)N3C)OCO4: 92.5
